assay_text: chemical genetic growth profiling, strain panel (AID 1159580);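 also: tested at 20 µM; growth read once vehicle control cultures reached saturation at 30 °C; 1 = growth at the plate median or of vehicle wells; lower values mean less growth of the strain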
test_conditions: S. cerevisiae deletion strains, growth OD, locus YJL092W, strain hpr5, hits give low values
In all, about 5,500 compounds went through this assay and about 2,000 (36%) were called active. Another 18% or so got no clear call; they are omitted. The list shows a part of the results.
Below is a list of entries, each paired with its recorded normalized growth value.
Give only the figure.

Use the examples below as a reference point.
>  <molecule>
NCCCS(=O)(=O)O

>  <normalized growth>
1.03

$$$$
>  <molecule>
CCN(CC)Cc1ccc(Nc2ccnc3cc(Cl)ccc23)cc1O

>  <normalized growth>
1.01

$$$$

For the next question, use this molecule.
The molecule CCCCC/C=C/CCC(=O)N[C@H]1[C@H](Oc2c3cc4cc2Oc2ccc(cc2Cl)[C@@H](O[C@@H]2O[C@H](CO)[C@@H](O)[C@H](O)[C@H]2NC(C)=O)[C@@H]2NC(=O)[C@H](NC(=O)[C@@H]4NC(=O)[C@H]4NC(=O)C(Cc5ccc(c(Cl)c5)O3)NC(=O)[C@H](N)c3ccc(O)c(c3)Oc3cc(O)cc4c3)c3ccc(O)c(c3)-c3c(OC4O[C@H](CO)[C@@H](O)[C@H](O)[C@@H]4O)cc(O)cc3[C@@H](C(=O)O)NC2=O)O[C@H](CO)[C@@H](O)[C@@H]1O (stereo partly drawn) showed normalized growth equal to 1
